- assay_notes: in vivo
- test_parameters: rat, plasma, intravenous, 200 nmol/kg, Vz, rat plasma
measurement_kind: Vd (L/kg)
Response body: numeric value in L/kg, unit text excluded.

// query Vd value for entry "CCCCCC(=O)N[C@H]1CSCc2cc(CSCCNC(=O)CN3CCN(CC(=O)O)CCN(CC(=O)O)CCN(CC(=O)O)CC3)cc(c2)CSC[C@@H](C(=O)O)NC(=O)[C@H](Cc2ccccc2)NC(=O)[C@H](CCC(N)=O)NC(=O)[C@H]([C@@H](C)O)NC(=O)[C@@H]2CCCN2C(=O)[C@@H]2CCCN2C1=O" 0.42

---

- assay_notes: in vivo
- test_parameters: rat, plasma, intravenous, 2 nmol/kg, Vz, rat plasma
measurement_kind: Vd (L/kg)
Response body: numeric value in L/kg, unit text excluded.

// query Vd value for entry "CCCCCC(=O)N[C@H]1CSCc2cc(CSCCNC(=O)CN3CCN(CC(=O)O)CCN(CC(=O)O)CCN(CC(=O)O)CC3)cc(c2)CSC[C@@H](C(=O)O)NC(=O)[C@H](Cc2ccccc2)NC(=O)[C@H](CCC(N)=O)NC(=O)[C@H]([C@@H](C)O)NC(=O)[C@@H]2CCCN2C(=O)[C@@H]2CCCN2C1=O" 0.32

---

Consider the following compounds; for each one, report its IC50.
- study_system: FAP-expressing human WI-38 fibroblasts (Homo sapiens)
- Construct: FAP-expressing human WI-38 fibroblasts (ECACC) were cultured in EMEM; host or cells: WI-38 human fibroblasts
- Sequence (Q12884 1-760): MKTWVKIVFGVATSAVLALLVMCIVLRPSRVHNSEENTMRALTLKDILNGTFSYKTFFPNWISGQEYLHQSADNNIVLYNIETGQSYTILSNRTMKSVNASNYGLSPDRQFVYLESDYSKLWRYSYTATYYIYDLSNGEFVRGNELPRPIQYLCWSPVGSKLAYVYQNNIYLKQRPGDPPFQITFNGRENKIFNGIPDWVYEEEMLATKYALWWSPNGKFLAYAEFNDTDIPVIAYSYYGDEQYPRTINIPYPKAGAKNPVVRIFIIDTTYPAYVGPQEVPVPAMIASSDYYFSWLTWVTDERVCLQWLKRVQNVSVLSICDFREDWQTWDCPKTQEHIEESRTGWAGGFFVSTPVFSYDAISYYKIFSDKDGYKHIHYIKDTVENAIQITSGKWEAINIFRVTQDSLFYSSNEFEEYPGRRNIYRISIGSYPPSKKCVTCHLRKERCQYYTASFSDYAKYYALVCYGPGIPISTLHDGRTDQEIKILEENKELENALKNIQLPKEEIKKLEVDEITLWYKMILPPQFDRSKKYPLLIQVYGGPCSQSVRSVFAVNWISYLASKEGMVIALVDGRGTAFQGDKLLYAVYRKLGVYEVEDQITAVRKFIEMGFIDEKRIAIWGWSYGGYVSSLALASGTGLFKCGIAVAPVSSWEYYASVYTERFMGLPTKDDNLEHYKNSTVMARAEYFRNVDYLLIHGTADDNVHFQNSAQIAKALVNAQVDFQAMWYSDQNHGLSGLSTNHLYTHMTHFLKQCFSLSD
- assay_notes: Competitive FACS binding assay
- test_parameters: pIC50 Category (FACS), competition with 3 nM Cy5-labeled compound, WI-38 fibroblasts, 4° C., 1 hour
Numbered stars: 1 amine (or outer) side, 2 acyl side, 3 side chain; on linkers, the order of the positions; unused ones are H or OH. Bridge positions count the residues as written; N and C are the ends. Square brackets hold non-standard residues; d marks the D form. Peptide text beside a SMILES is read from it. * marks the point of attachment. ξ: configuration not given here. X2 = O=C(O)CN1CCN(CC(=O)O)CCN(CC(=O)NCCCOCCOCCOCCCN*)CCN(CC(=O)O)CC1; mXylylene = c1cc(C[*:1])cc(C[*:2])c1; Suc = O=C(CCC(=O)[*:2])[*:1]; Nle = CCCC[C@H](N)C(=O)O; Hexanoyl = CCCCCC(=O)*; ξM = CSCCC(N)C(=O)O

Look up IC50 with FAP-expressing human WI-38 fibroblasts (Homo sapiens) for this compound: "CCCCCC[C@H](NC(=O)CCC(=O)NCCCOCCOCCOCCCNC(=O)CN1CCN(CC(=O)O)CCN(CC(=O)O)CCN(CC(=O)O)CC1)C(=O)N[C@H]1CSCc2cccc(c2)CSC[C@@H](C(=O)NCCC(=O)O)NC(=O)[C@H](Cc2ccccc2)NC(=O)[C@H](CCC(N)=O)NC(=O)[C@H]([C@@H](C)O)NC(=O)[C@@H]2CCCN2C(=O)[C@@H]2CCCN2C1=O" > 1000 nM

Let us now turn to CCCC[C@H](NC(=O)CCC(=O)NCCCOCCOCCOCCCNC(=O)CN1CCN(CC(=O)O)CCN(CC(=O)O)CCN(CC(=O)O)CC1)C(=O)N[C@H]1CSCc2cccc(c2)CSC[C@@H](C(N)=O)NC(=O)[C@H](Cc2ccccc2)NC(=O)[C@H](CCC(=O)O)NC(=O)[C@H]([C@@H](C)O)NC(=O)[C@@H]2CCCN2C(=O)[C@@H]2CCCN2C1=O [3BP-3319] ({X2-Suc}-[Nle]CPPTEFC-NH2; linker 2-8 via mXylylene) 10 to 79.4 nM

Let us now turn to CSCC[C@H](NC(C)=O)C(=O)N[C@H]1CSCc2cccc(c2)CSC[C@@H](C(=O)N[C@@H](CC(=O)O)C(=O)N[C@@H](Cc2c[nH]cn2)C(=O)N[C@@H](Cc2ccccc2)C(=O)N[C@H](CCCNC(=N)N)C(=O)N[C@@H](CC(=O)O)C(N)=O)NC(=O)[C@H](Cc2ccccc2)NC(=O)[C@H](CCC(=O)O)NC(=O)[C@H]([C@@H](C)O)NC(=O)[C@@H]2CCCN2C(=O)[C@@H]2CCCN2C1=O [3BP-3212] (Ac-MCPPTEFCDHF[dR]D-NH2; linker 2-8 via mXylylene) < 10 nM

Let us now turn to CCCCCC(=O)N[C@H]1CSCc2cccc(c2)CSC[C@@H](C(N)=O)NC(=O)[C@H](Cc2ccccc2)NC(=O)[C@H](C)NC(=O)[C@H]([C@@H](C)O)NC(=O)[C@@H]2CCCN2C(=O)[C@@H]2CCCN2C1=O [3BP-3348] (Hexanoyl-CPPTAFC-NH2; linker 1-7 via mXylylene) > 1000 nM

Let us now turn to CSCCC(N)C(=O)N[C@H]1CSCc2cccc(c2)CSC[C@@H](C(=O)N[C@@H](CC(=O)O)C(=O)N[C@@H](Cc2c[nH]cn2)C(=O)N[C@@H](Cc2ccccc2)C(=O)N[C@@H](CCCNC(=N)N)C(=O)N[C@@H](CC(=O)O)C(N)=O)NC(=O)[C@H](Cc2ccccc2)NC(=O)[C@H](CCC(=O)O)NC(=O)[C@H]([C@@H](C)O)NC(=O)[C@@H]2CCCN2C(=O)[C@@H]2CCCN2C1=O (some centres unmarked) [3BP-2976] (H-[ξM]CPPTEFCDHFRD-NH2; linker 2-8 via mXylylene) < 10 nM
